system_under_test: STARD1 (StAR), STARD1^S195E, residues 66-285 (Homo sapiens, UniProt P49675, S195E)
Sequence (P49675 66-285 S195E): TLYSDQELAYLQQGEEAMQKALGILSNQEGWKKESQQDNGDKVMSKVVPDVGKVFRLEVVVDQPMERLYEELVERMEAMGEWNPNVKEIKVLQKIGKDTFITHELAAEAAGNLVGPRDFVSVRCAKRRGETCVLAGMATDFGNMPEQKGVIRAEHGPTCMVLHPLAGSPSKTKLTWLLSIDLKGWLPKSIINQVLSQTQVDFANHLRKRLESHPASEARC
method_summary: NBD fluorescence titration, quadratic fit
pKd: −log10 of the molar value.
reported_endpoint: pKd

P = CC(Nc1ccc([N+](=O)[O-])c2nonc12)[C@H]1CC[C@H]2[C@@H]3CC=C4C[C@@H](O)CC[C@]4(C)[C@H]3CC[C@]12C (some centres unmarked) [20NP, 20-((NBDamino)-pregn-5-en-3-ol]
Q = CC(C)CCC[C@@H](C)[C@H]1CC[C@H]2[C@@H]3CCC4CC(Nc5ccc([N+](=O)[O-])c6nonc56)CC[C@]4(C)[C@H]3CC[C@]12C (some centres unmarked)
**Query** Which entry has a larger number for pKd, P or Q ? Give the label of your selection.
**Result** P
(P: 7.59, Q: 6.52)
